Where do these numbers come from? They come from patent US20260232825A1.

experiment: Hydrophobic interaction chromatography (HIC) analysis of the antibody-drug conjugates; assay type: physicochemical; settings: main peak of the antibody-drug conjugate, Butyl-NPR column
measured-metric: HIC retention time (min)
Give the value in min but do not write min after it.

stdin: Would you kindly share the measured HIC retention time for CC[C@@]1(O)C(=O)OCc2c1cc1n(c2=O)Cc2c-1nc1cc(F)c(C)c3c1c2[C@@H](NC(=O)OCc1ccc(NC(=O)[C@H](C)NC(=O)[C@@H](NC(=O)[C@H](CCC(=O)NCC[N+](C)(C)CCCS(=O)(=O)[O-])NC(=O)CCOCCOCCOCCOCCNC(=O)CCN2C(=O)C=CC2=O)C(C)C)cc1)CC3 ?
stdout: 14.069

stdin: Look at this molecule and give its reported HIC retention time. CC[C@@]1(O)C(=O)OCc2c1cc1n(c2=O)Cc2c-1nc1cc(F)c(C)c3c1c2[C@@H](NC(=O)OCc1ccc(NC(=O)[C@H](C)NC(=O)[C@@H](NC(=O)CCCCCN(C)CCN2C(=O)C=CC2=O)C(C)C)cc1CN(C)C(=O)CCC[N+](C)(C)CCCS(=O)(=O)[O-])CC3
stdout: 13.121

stdin: Consider the molecule shown here: CC[C@@]1(O)C(=O)OCc2c1cc1n(c2=O)Cc2c-1nc1cc(F)c(C)c3c1c2[C@@H](NC(=O)OCc1ccc(NC(=O)[C@H](CCC(=O)NCC[N+](C)(C)CCCS(=O)(=O)[O-])NC(=O)[C@@H](NC(=O)CCOCCOCCOCCOCCNC(=O)CCN2C(=O)C=CC2=O)C(C)C)cc1)CC3 What is its recorded HIC retention time?
stdout: 13.57

stdin: Param item = CC[C@@]1(O)C(=O)OCc2c1cc1n(c2=O)Cc2c-1nc1cc(F)c(C)c3c1c2[C@@H](NC(=O)OCc1ccc(NC(=O)[C@H](C)NC(=O)[C@@H](NC(=O)[C@H](CCC(=O)O)NC(=O)CCCCCN2C(=O)C=CC2=O)C(C)C)cc1)CC3 ; retrieve measured HIC retention time.
stdout: 15.107
